# experiment description: Induction of apoptosis in human HL7702 cells assessed as live cells at 100 uM after 42 hrs by Annexin V-FITC/propidium iodide staining based flow cytometry (reference value: 98.5%)
# Type: cell-based
# experimental setup: HL7702 (L02) cells, read-out: Activity

[
  {
    "compound": "COc1cc([C@@H]2c3cc4c(cc3[C@@H](O[C@@H]3O[C@@H]5CO[C@@H](C)O[C@H]5[C@H](O)[C@H]3O)[C@H]3COC(=O)[C@H]23)OCO4)cc(OC)c1O [ETOPOSIDE]",
    "viability at 42 h, 100 µM, %": 28
  }
]

* * *

pIC50 for assorted molecules
# experiment description: Cytotoxicity against human H8 cells after 48 hrs by MTT assay
# Assay type: cell-based
pIC50: −log10 of the molar value.
measured parameter: pIC50

[
  {
    "molecule": "COc1cc([C@@H]2c3cc4c(cc3[C@@H](C3CC(c5ccncc5F)=CN3)[C@H]3COC(=O)[C@H]23)OCO4)cc(OC)c1O (stereo partly specified)",
    "bound operator": "=",
    "obs value": 4.72
  },
  {
    "molecule": "COc1cc([C@@H]2c3cc4c(cc3[C@@H](c3nc5cc(C(F)(F)F)ccc5s3)[C@H]3COC(=O)[C@H]23)OCO4)cc(OC)c1O",
    "bound operator": "=",
    "obs value": 4.09
  },
  {
    "molecule": "COc1cc([C@@H]2c3cc4c(cc3[C@@H](c3nc5cc(C)ccc5s3)[C@H]3COC(=O)[C@H]23)OCO4)cc(OC)c1O",
    "bound operator": "=",
    "obs value": 4.56
  },
  {
    "molecule": "COc1cc([C@@H]2c3cc4c(cc3[C@@H](c3nc5cc(-c6ccccc6)ccc5o3)[C@H]3COC(=O)[C@H]23)OCO4)cc(OC)c1O",
    "bound operator": "<",
    "obs value": 4.00
  },
  {
    "molecule": "COc1cc([C@@H]2c3cc4c(cc3[C@@H](c3nc5ccccc5s3)[C@H]3COC(=O)[C@H]23)OCO4)cc(OC)c1O",
    "bound operator": "=",
    "obs value": 4.71
  },
  {
    "molecule": "COc1cc([C@@H]2c3cc4c(cc3[C@@H](O)[C@H]3COC(=O)[C@H]23)OCO4)cc(OC)c1O [4'-DEMETHYLEPIPODOPHYLLOTOXIN]",
    "bound operator": "=",
    "obs value": 4.60
  }
]

Hello, the source for this data is ChEMBL document CHEMBL4265964, in case you need it.
